Could you please report measured pIC50 for the items listed next?
experimental_target: CCR(9) (Homo sapiens, UniProt P51686)
Construct: CCR(9)-expressing cells such as T cell line MOLT-4 cells
Sequence (P51686 whole entry): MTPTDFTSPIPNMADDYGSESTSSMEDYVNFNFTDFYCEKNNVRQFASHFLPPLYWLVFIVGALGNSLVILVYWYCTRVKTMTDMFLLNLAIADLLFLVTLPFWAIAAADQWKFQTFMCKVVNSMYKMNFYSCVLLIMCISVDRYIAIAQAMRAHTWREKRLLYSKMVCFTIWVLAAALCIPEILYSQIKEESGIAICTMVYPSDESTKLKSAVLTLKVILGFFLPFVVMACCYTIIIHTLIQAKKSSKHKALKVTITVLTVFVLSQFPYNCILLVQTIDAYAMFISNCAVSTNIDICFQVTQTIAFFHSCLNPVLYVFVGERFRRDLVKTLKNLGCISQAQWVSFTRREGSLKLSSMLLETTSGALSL
test: calcium mobilization assay (FLIPR, MOLT-4 cells, hTECK)
condition_context: read-out: CCR(9) Ca^2+
pIC50: −log10 of the molar value.

Input line: Which pIC50 value belongs to Cc1cc(NS(=O)(=O)c2ccc(C(C)(C)C)cc2)n(-c2ccc(N(C)C)c3ccccc23)n1 ?
Output line: > 7.00

Input line: I'd like to know its pIC50. The compound in question is Cc1cc(NS(=O)(=O)c2ccc3c(c2)CCC3(C)C)n(-c2cccc3ncccc23)n1
Output line: > 7.00

Input line: For the compound Cc1cc(NS(=O)(=O)c2ccc(C(C)(C)C)cc2)n(-c2cccc3[nH]c(=O)ccc23)n1 , what pIC50 is on record?
Output line: > 7.00

Input line: For the compound CC(C)c1ccc(S(=O)(=O)Nc2cc(C(C)(F)F)nn2-c2cccc3ncccc23)cc1 , what pIC50 is on record?
Output line: > 7.00

Input line: # query: pIC50 of entry Cc1cc(NS(=O)(=O)c2ccc3c(c2)CCC(C)(C)O3)n(-c2cccc3ncccc23)n1
Output line: > 7.00

Input line: // pIC50 lookup, key: Cc1cc(NS(=O)(=O)c2ccc(C(C)(C)C)cc2)n(-c2cccc3nccc(C)c23)n1
Output line: > 7.00

Input line: Reported pIC50, compound CC(C)c1cc(NS(=O)(=O)c2ccc(C(C)(C)C)cc2)n(-c2cccc3ncccc23)n1 : ____
Output line: 6.00 to 7.00

Input line: Please look up its pIC50: Cc1cc(NS(=O)(=O)c2ccc(N3CCOCC3)c(F)c2)n(-c2cccc3ncccc23)n1
Output line: > 7.00

Input line: Given the compound Cc1nn(-c2cccc3ncccc23)c(NS(=O)(=O)c2ccc(C(C)(C)C)cc2)c1F , what is its reported pIC50?
Output line: > 7.00

Input line: Request the reported pIC50 associated with Cc1cc(NS(=O)(=O)c2ccc(C(C)(C)C)cc2)n(Cc2cccc3ncccc23)n1
Output line: 6.00 to 7.00

Input line: Requested read-out: pIC50. Entry: Cc1cc(NS(=O)(=O)c2ccc(OC(C)(C)C)cc2)n(-c2cccc3ncccc23)n1
Output line: 6.00 to 7.00

Input line: Need pIC50 of CC(C)(C)c1ccc(S(=O)(=O)Nc2cc(C(F)(F)F)nn2-c2cccc3cccnc23)cc1 , thanks.
Output line: < 6.00

Input line: Which pIC50 is reported for this compound? Cc1cc(NS(=O)(=O)c2ccc(C3(C#N)CC3)cc2)n(-c2cccc3ncccc23)n1
Output line: > 7.00

Input line: Quick check: pIC50 of Cc1cnc2cccc(-n3nc(C)cc3NS(=O)(=O)c3ccc(C(C)(C)C)cc3)c2c1 ?
Output line: 6.00 to 7.00

Input line: GET /values?readout=pIC50&item= CC(C)(C)c1ccc(S(=O)(=O)Nc2cc(C(N)=O)nn2-c2cccc3ncccc23)cc1
Output line: 6.00 to 7.00

###

Assign pEC50 to each entry below.
experimental_target: CCR(9) (Homo sapiens)
Construct: CCR(9)-expressing cells such as T cell line MOLT-4 cells
test: serum chemotaxis (serum migration) assay, MOLT-4 cells in human serum, TECK
condition_context: read-out: A2
pEC50: −log10 of the molar value.

Input line: Lab note: need pEC50 for Cc1cc(NS(=O)(=O)c2ccc(C(C)(C)C)cc2)n(-c2ccc(Cl)c3ncccc23)n1 on CCR(9) (Homo sapiens), anyone have it?
Output line: > 6.30

Input line: Param readout = pEC50; param system = CCR(9) (Homo sapiens); param query = Cc1cc(NS(=O)(=O)c2ccc(C(C)(C)C)cc2)n(-c2nncc3ccccc23)n1 ; response: value
Output line: 5.60 to 6.30

Input line: # query: pEC50 | item Cc1cc(NS(=O)(=O)c2ccc(C(C)C)cc2)n(-c2cccc3ncccc23)n1 | system: CCR(9) (Homo sapiens)
Output line: 5.60 to 6.30

Input line: Form: Entry = CC(C)(C)c1ccc(S(=O)(=O)Nc2cc(C#N)nn2-c2cccc3ncccc23)cc1 | System = CCR(9) (Homo sapiens) | pEC50 = ____
Output line: 5.60 to 6.30

Input line: Find the measured pEC50: item Cc1cc(NS(=O)(=O)c2ccc(C(C)(C)C)cc2)n(-c2ccnc3c(F)cccc23)n1 , target or system CCR(9) (Homo sapiens).
Output line: 5.60 to 6.30

Input line: Please state recorded pEC50 (tested on CCR(9) (Homo sapiens)) of Cc1cc(NS(=O)(=O)c2ccc(C(C)(C)C)cc2)n(-c2nccc3ccccc23)n1
Output line: 5.60 to 6.30

Input line: Recall the recorded pEC50 for Cc1cc(NS(=O)(=O)c2ccc(OC(C)C)cc2)n(-c2cccc3cnccc23)n1 with CCR(9) (Homo sapiens) and state it.
Output line: 5.60 to 6.30

Input line: Any idea what pEC50 came out for Cc1cc(NS(=O)(=O)c2ccc(C(C)(C)C)cc2F)n(-c2cccc3ncccc23)n1 on CCR(9) (Homo sapiens)?
Output line: 5.60 to 6.30

Input line: What measured pEC50 is associated with CC(C)(C)c1ccc(S(=O)(=O)Nc2cc(CF)nn2-c2cccc3ncccc23)cc1F on CCR(9) (Homo sapiens)?
Output line: > 6.30

Input line: Item CC(C)c1ccc(S(=O)(=O)Nc2cc(C(F)(F)F)nn2-c2cccc3ncccc23)cc1 with CCR(9) (Homo sapiens) - pEC50?
Output line: 5.60 to 6.30

Input line: Observed pEC50 on CCR(9) (Homo sapiens) for Cc1cc(NS(=O)(=O)c2ccc(C(C)(C)C)cc2)n(-c2cnnc3ccccc23)n1 , please.
Output line: 5.60 to 6.30

Input line: Form field: pEC50 recorded for CCC(C)(C)c1ccc(S(=O)(=O)Nc2cc(C)nn2-c2cccc3ncccc23)cc1 with CCR(9) (Homo sapiens) (enter value)
Output line: 5.60 to 6.30

Input line: Any idea what pEC50 came out for Cc1cc(NS(=O)(=O)c2ccc(C(C)(C)C)cc2)n(-c2cccc3c(N)nccc23)n1 on CCR(9) (Homo sapiens)?
Output line: 5.60 to 6.30

Input line: CCR(9) (Homo sapiens) / pEC50 / CC(C)Oc1ccc(S(=O)(=O)Nc2cc(C(F)(F)F)nn2-c2cccc3cnccc23)cc1 : value?
Output line: 5.60 to 6.30

Input line: # returns recorded pEC50 (system: CCR(9) (Homo sapiens)) for CC(C)c1ccc(S(=O)(=O)Nc2cc(C(F)F)nn2-c2cccc3ncccc23)cc1
Output line: 5.60 to 6.30

Input line: Tell me reported pEC50 for CC(C)(C)c1ccc(S(=O)(=O)Nc2cc(C(F)F)nn2-c2cccc3ncccc23)cc1F , tested with CCR(9) (Homo sapiens).
Output line: 5.60 to 6.30

Input line: Checklist item: pEC50 tested on CCR(9) (Homo sapiens), entry Cc1cc(NS(=O)(=O)c2ccc(C(C)(C)C)cc2)n(-c2ccc(N)c3ncccc23)n1 , value?
Output line: > 6.30

Input line: Lab request: please report pEC50 under test system CCR(9) (Homo sapiens) for Cc1cc(NS(=O)(=O)c2ccc(OC(C)C)c(F)c2)n(-c2cccc3ncccc23)n1
Output line: 5.60 to 6.30

Input line: Enter reported pEC50 observed with CCR(9) (Homo sapiens) for COc1cnc(-n2nc(C)cc2NS(=O)(=O)c2ccc(C(C)(C)C)cc2)c2ccccc12
Output line: 5.60 to 6.30

Input line: Form field: pEC50 recorded for Cc1ccc2c(-n3nc(C)cc3NS(=O)(=O)c3ccc(C(C)(C)C)cc3)cccc2n1 with CCR(9) (Homo sapiens) (enter value)
Output line: > 6.30

Input line: // map COc1ccc(-n2nc(C)cc2NS(=O)(=O)c2ccc(C(C)(C)C)cc2)c2cccnc12 to recorded pEC50 (system: CCR(9) (Homo sapiens))
Output line: > 6.30

Input line: Short answer please: pEC50, CCR(9) (Homo sapiens), entry CC(C)(C)c1ccc(S(=O)(=O)Nc2ccnn2-c2cccc3ncccc23)cc1
Output line: < 5.60

Input line: Find pEC50 (CCR(9) (Homo sapiens)) for the entry Cc1cc(NS(=O)(=O)c2ccc(C(C)(C)C)cc2)n(-c2cccc3c[n+]([O-])ccc23)n1
Output line: < 5.60

Input line: Form: Entry = CC(C)c1ccc(S(=O)(=O)Nc2cc(C(F)(F)F)nn2-c2cccc3cnccc23)cc1 | System = CCR(9) (Homo sapiens) | pEC50 = ____
Output line: 5.60 to 6.30

Input line: Request body: readout pEC50, system CCR(9) (Homo sapiens), query Cc1cc(NS(=O)(=O)c2ccc(C(C)(C)C)c(Cl)c2)n(-c2cccc3ncccc23)n1 . Return the value.
Output line: 5.60 to 6.30

Input line: Quick check: pEC50 on CCR(9) (Homo sapiens), item Cc1cc(NS(=O)(=O)c2ccc(C(C)C)cc2)n(-c2cccc3cnccc23)n1 ?
Output line: 5.60 to 6.30

Input line: For CCR(9) (Homo sapiens), provide pEC50 of Cc1cc(NS(=O)(=O)c2ccc(C(C)(C)C)cc2)n(-c2n[nH]c(=O)c3ccccc23)n1 please.
Output line: 5.60 to 6.30

Input line: # returns recorded pEC50 (system: CCR(9) (Homo sapiens)) for Cc1cc(NS(=O)(=O)c2ccc(C(C)(C)C)cc2)n(-c2cccc3cnccc23)n1
Output line: 5.60 to 6.30
